tested on: blackgrass (Aloepecurus myosuroides); test: Preemergence herbicidal activity, blackgrass; type: in vivo; conditions: Rate of Application 0.3 Kg/Ha, examined after 12-17 days
observable: PREEMERGENCE HERBICIDAL ACTIVITY (% CONTROL) ALOMY (%)

compound | recorded result
Cn1c(C(F)(F)F)cc(=O)n(-c2c(F)cc(Cl)c3nc(COc4ccccc4)[nH]c23)c1=O [Compound 378] | 80
Cc1nc2c(-n3c(=O)cc(C(F)(F)F)n(C)c3=O)c(F)cc(Cl)c2[nH]1 [Compound 363] | 100
C=C(C)c1cc2c(Cl)cc(F)c(-n3c(=O)cc(C(F)(F)F)n(C)c3=O)c2o1 [Compound 231] | 90
Cn1c(C(F)(F)F)cc(=O)n(-c2c(F)cc(Cl)c3nc(Cc4cccc(Cl)c4)[nH]c23)c1=O [Compound 382] | 90
CC(=O)Nc1nc2c(-n3c(=O)cc(C(F)(F)F)n(C)c3=O)c(F)cc(Br)c2o1 [Compound 43] | 60
CC(C)Oc1nc2c(-n3c(=O)cc(C(F)(F)F)n(C)c3=O)c(F)cc(Br)c2o1 [Compound 107] | 75
Cn1c(C(F)(F)F)cc(=O)n(-c2c(F)cc(Br)c3oc(NS(C)(=O)=O)nc23)c1=O [Compound 108] | 50
Cn1c(C(F)(F)F)cc(=O)n(-c2c(F)cc(Cl)c3[nH]c(C45CC6CC(CC(C6)C4)C5)nc23)c1=O [Compound 374] | 40
Cn1c(C(F)(F)F)cc(=O)n(-c2ccc(Cl)c3cc(CO)oc23)c1=O [Compound 238] | 50
CC(OC(=O)c1ccccc1)c1cc2c(Cl)cc(F)c(-n3c(=O)cc(C(F)(F)F)n(C)c3=O)c2o1 (stereo not shown) [Compound 248] | 95
CN(C)C(=O)c1cc2c(Cl)cc(F)c(-n3c(=O)cc(C(F)(F)F)n(C)c3=O)c2o1 [Compound 275] | 80
Cn1c(C(F)(F)F)cc(=O)n(-c2c(F)cc(Cl)c3cc(CCCl)oc23)c1=O [Compound 236] | 80
CCN(CC)Cc1cc2c(Cl)ccc(-n3c(=O)cc(C(F)(F)F)n(C)c3=O)c2o1 [Compound 257] | 20
Cn1c(C(F)(F)F)cc(=O)n(-c2c(F)cc(Br)c3oc(COc4ccccc4)nc23)c1=O [Compound 99] | 60
Cn1c(C(F)(F)F)cc(=O)n(-c2c(F)cc(Cl)c3oc(C(C)(C)C)nc23)c1=O [Compound 30] | 100
CC(Cl)c1cc2c(Cl)cc(F)c(-n3c(=O)cc(C(F)(F)F)n(C)c3=O)c2o1 (stereo not shown) [Compound 234] | 80
CC(=O)OC(C)c1cc2c(Cl)cc(F)c(-n3c(=O)cc(C(F)(F)F)n(C)c3=O)c2o1 (stereo not shown) [Compound 246] | 100
CCOC(=O)CCc1nc2c(-n3c(=O)cc(C(F)(F)F)n(C)c3=O)c(F)cc(Cl)c2[nH]1 [Compound 372] | 80
CC(=O)OCCc1cc2c(Cl)cc(F)c(-n3c(=O)cc(C(F)(F)F)n(C)c3=O)c2o1 [Compound 260] | 95
CCOC(=O)c1cc2cccc(-n3c(=O)cc(C(F)(F)F)n(C)c3=O)c2o1 [Compound 267] | 50
CCCC(C)c1cc2c(Cl)cc(F)c(-n3c(=O)cc(C(F)(F)F)n(C)c3=O)c2o1 (stereo not shown) [Compound 229] | 80
CC(c1ccccc1)c1nc2c(Cl)cc(F)c(-n3c(=O)cc(C(F)(F)F)n(C)c3=O)c2[nH]1 (stereo not shown) [Compound 377] | 100
Cn1c(C(F)(F)F)cc(=O)n(-c2c(F)cc(Cl)c3cc(CCCC#N)oc23)c1=O [Compound 256] | 70
Cn1c(C(F)(F)F)cc(=O)n(-c2c(F)cc(Cl)c3cc(CCC(=O)O)oc23)c1=O [Compound 262] | 50
CN(C)C(=O)c1cc2c(Cl)ccc(-n3c(=O)cc(C(F)(F)F)n(C)c3=O)c2o1 [Compound 271] | 80
Cn1c(C(F)(F)F)cc(=O)n(-c2c(F)cc(Cl)c3cc(C(C)(C)O)oc23)c1=O [Compound 242] | 100
CC(C)c1nc2c(-n3c(=O)cc(C(F)(F)F)n(C)c3=O)c(F)cc(Cl)c2[nH]1 [Compound 368] | 95
Cn1c(C(F)(F)F)cc(=O)n(-c2c(F)cc(Cl)c3cc(C(C)(C)C)oc23)c1=O [Compound 227] | 95
Cn1c(C(F)(F)F)cc(=O)n(-c2c(F)cc(Cl)c3[nH]c(C(F)F)nc23)c1=O [Compound 364] | 80
Cn1c(C(F)(F)F)cc(=O)n(-c2c(F)cc(Cl)c3cc(C(N)=O)oc23)c1=O [Compound 273] | 90
Cn1c(C(F)(F)F)cc(=O)n(-c2c(F)cc(Cl)c3nc(-c4ccccc4)[nH]c23)c1=O [Compound 375] | 80
